biological target: human CD33 F345A (human, UniProt P20138 18-364); assay: flow cytometry, alanine scan
Sequence (P20138 18-364 F345A limits assumed): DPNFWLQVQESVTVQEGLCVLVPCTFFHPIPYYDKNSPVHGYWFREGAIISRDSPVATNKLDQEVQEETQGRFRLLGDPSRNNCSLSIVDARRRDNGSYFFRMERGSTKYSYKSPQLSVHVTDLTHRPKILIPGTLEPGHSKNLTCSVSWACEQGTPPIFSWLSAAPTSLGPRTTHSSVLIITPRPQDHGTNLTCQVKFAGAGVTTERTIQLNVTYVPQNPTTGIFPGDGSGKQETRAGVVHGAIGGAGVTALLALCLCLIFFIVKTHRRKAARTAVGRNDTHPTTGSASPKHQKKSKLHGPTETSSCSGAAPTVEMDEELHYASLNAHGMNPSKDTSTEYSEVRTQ
Entries and their Mean % WT Binding

Some binders with known Mean % WT Binding results, for comparison:
>>> experimental_result("Refmab #4 (antibody, V domains shown, The alanine scan used IgG or Fab) VH: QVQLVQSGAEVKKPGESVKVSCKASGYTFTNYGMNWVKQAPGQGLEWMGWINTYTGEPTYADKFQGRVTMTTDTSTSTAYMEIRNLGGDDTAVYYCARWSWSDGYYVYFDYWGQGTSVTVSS VL: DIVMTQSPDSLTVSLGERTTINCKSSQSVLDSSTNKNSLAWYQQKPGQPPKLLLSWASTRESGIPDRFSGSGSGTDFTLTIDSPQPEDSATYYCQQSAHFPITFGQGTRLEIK")
"109 % of WT"
>>> experimental_result("Refmab #1 (antibody, V domains shown, The alanine scan used IgG or Fab; also called hP67.6) VH: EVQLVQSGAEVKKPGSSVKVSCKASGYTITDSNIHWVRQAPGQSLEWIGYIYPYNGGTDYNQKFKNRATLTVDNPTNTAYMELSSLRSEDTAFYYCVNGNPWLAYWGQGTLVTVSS VL: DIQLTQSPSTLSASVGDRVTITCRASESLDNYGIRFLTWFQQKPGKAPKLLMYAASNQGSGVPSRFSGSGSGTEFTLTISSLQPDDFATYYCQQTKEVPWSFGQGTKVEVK")
"97.8 % of WT"

Moving on to another binder below.
What the record says about Refmab #2 (antibody, V domains shown, The alanine scan used IgG or Fab) VH: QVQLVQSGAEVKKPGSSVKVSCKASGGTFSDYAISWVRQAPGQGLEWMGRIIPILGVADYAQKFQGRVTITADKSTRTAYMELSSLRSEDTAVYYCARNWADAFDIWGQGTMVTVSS VL: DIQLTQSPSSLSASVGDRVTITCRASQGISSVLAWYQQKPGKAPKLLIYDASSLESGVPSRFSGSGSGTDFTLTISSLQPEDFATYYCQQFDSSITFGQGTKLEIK : Mean % WT Binding is 102 % of WT

Source of measurements: patent US20260242735A1
